assay: physchem
Description: Ionization constant (pKa)
Measured pKa, listed per entry.

Quick check: pKa of "O=S(=O)(CCCNCCc1ccc(O)c2nc(O)sc12)NCCOCCc1cccc(Cl)c1" ? > 8

Quick check: pKa of "O=S(=O)(CCCOCCSc1ccccc1)CCNCCc1ccc(O)c2nc(O)sc12" ? < 8

Quick check: pKa of "O=S(=O)(CCCOCCCc1ccccc1)CCNCCc1ccc(O)c2nc(O)sc12" ? < 8

---

biological target: Beta-2 adrenergic receptor (Cavia porcellus) (UniProt Q8K4Z4)
Sequence (Q8K4Z4 whole entry, looked up): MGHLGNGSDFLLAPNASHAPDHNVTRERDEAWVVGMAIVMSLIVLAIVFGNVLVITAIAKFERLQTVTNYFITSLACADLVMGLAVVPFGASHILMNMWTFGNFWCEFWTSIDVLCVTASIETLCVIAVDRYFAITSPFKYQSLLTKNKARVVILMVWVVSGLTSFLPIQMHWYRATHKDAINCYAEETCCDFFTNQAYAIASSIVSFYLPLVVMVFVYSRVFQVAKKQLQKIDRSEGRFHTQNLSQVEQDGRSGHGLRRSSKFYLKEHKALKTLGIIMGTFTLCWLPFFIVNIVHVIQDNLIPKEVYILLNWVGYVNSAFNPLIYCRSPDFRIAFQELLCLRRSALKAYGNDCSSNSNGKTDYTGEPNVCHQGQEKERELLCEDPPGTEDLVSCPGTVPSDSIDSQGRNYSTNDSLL
MEASURE: Beta2 duration (min)

These recorded examples may help you get a feel for the data.
1. O=S(=O)(CCCNCCc1ccc(O)c2nc(O)sc12)NCCSCCc1ccccc1 180
2. O=S(=O)(CCCNCCc1ccc(O)c2nc(O)sc12)CCOCCOc1ccccc1 52
3. O=C(CCOCCCc1ccccc1)NCCNCCc1ccc(O)c2nc(O)sc12 150
4. O=S(=O)(CCNCCc1ccc(O)c2nc(O)sc12)NCCOCCc1ccccc1 79
5. O=S(=O)(CCCNCCc1ccc(O)c2nc(O)sc12)NCCOCc1ccccc1 72

P. CN(CCCNCCc1ccc(O)c2nc(O)sc12)S(=O)(=O)CCOCCc1ccccc1
Q. CS(=O)(=O)Nc1ccc(CCOCCCS(=O)(=O)CCNCCc2ccc(O)c3nc(O)sc23)cc1
Task for the reader: decide whether P or Q has the larger Beta2 duration. Return value: the label identifying the chosen record. P
(P: 60 min, Q: 40 min)

A. O=c1[nH]c2c(O)ccc(CCNCCS(=O)(=O)CCCOCCc3ccccc3)c2s1
B. Cc1ccc(CCOCCCS(=O)(=O)CCNCCc2ccc(O)c3nc(O)sc23)nc1
Task for the reader: decide whether A or B has the larger Beta2 duration. Return value: the label identifying the chosen record. A

---

assay: physchem
MEASURE: pKa

1. Nc1ccccc1CCOCCS(=O)(=O)CCCNCCc1ccc(O)c2nc(O)sc12 > 8
2. O=S(=O)(CCCOCCc1ccccn1)CCNCCc1ccc(O)c2nc(O)sc12 < 8
3. CC(C)(CCCCCOCCc1ccccc1)NCCc1ccc(O)c2nc(O)sc12 > 8
4. Oc1nc2c(O)ccc(CCNCCCCCOCCCc3ccccc3)c2s1 > 8

Field: next compound
Quick check: pKa of "Oc1nc2c(O)ccc(CCNCCC(F)(F)CCCOCCc3ccccc3)c2s1" ? > 8

---

biological target: Beta-2 adrenergic receptor (Cavia porcellus) (UniProt Q8K4Z4)
MEASURE: Beta2 duration (min)

These recorded examples may help you get a feel for the data.
1. O=S(=O)(CCCNCCc1ccc(O)c2nc(O)sc12)NCCOCCSc1ccccc1 180
2. Oc1nc2cccc(CCNCCCCCCNCCc3ccc(O)c4nc(O)sc34)c2s1 45
3. CN(CCNCCc1ccc(O)c2nc(O)sc12)C(=O)CCOCCc1ccccc1 116
4. O=S(=O)(CCOCCc1ccccc1)NCCCNCCc1ccc(O)c2nc(O)sc12 69

A. O=S(=O)(CCCNCCc1ccc(O)c2nc(O)sc12)CCOCc1ccccc1
B. O=S(=O)(CCOCCc1ccccc1)NCCNCCc1ccc(O)c2nc(O)sc12
C. O=S(=O)(CCCNCCc1ccc(O)c2nc(O)sc12)CCNCCc1ccccc1
D. O=S(=O)(CCCOCCc1ccc(O)cc1)CCNCCc1ccc(O)c2nc(O)sc12
Order the items by recorded Beta2 duration; the first position goes to the largest value. # respond with the labels, arranged in the requested order B, A, D, C
